target: LIMK1 (Homo sapiens, UniProt P53667)
Construct: purchased Promega
Sequence (P53667 whole entry): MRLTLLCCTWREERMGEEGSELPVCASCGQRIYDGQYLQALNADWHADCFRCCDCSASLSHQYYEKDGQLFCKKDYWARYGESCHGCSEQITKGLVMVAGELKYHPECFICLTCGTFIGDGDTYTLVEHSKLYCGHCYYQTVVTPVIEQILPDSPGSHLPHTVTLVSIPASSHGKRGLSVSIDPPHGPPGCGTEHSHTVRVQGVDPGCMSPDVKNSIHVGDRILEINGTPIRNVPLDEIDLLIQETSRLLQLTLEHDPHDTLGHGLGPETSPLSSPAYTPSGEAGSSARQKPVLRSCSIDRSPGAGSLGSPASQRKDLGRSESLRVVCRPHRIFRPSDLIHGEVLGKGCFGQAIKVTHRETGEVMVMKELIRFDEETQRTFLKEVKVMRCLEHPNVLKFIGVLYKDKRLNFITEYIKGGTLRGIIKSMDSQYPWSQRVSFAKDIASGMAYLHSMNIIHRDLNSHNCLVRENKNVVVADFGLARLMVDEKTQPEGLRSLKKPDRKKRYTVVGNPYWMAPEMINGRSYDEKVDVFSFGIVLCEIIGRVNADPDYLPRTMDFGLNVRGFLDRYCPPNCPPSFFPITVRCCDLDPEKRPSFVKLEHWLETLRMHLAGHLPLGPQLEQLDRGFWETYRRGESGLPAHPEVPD
measurement_notes: LIMK1 ADP-Glo kinase assay (Promega)
Assay type: biochemical
assay_context: 0.1 μM compound; Promega ADP-Glo kinase assay; Table 1; read-out: % LIMK1 inhibition at 0.1 μM
// reported inhibition at 0.1 µM for each item listed
Give just the numeric value; % need not be written.

A selection of reference data follows.
* Cc1c[nH]c2ncnc(N[C@H]3CC[C@H](NC(=NC#N)Nc4cccc(Br)c4)CC3)c12 | 69.2
* Cc1c[nH]c2ncnc(NCCCCNC(=NC#N)Nc3cccc(I)c3)c12 | 41

The compound `Cc1c[nH]c2ncnc(NCCCNC(=NC#N)Nc3cccc(I)c3)c12` showed inhibition at 0.1 µM equal to 17.8

Recorded values, source paper PMC8711653.
